# experiment-description: label from the status in PepcDB records
observed-property: protein production

Guide cases for protein production, answers given:
{"residue-sequence": "METPAVSLLVAVYNTETYIRTCLESLRNQTMDNIEIIIVNDGSADASPDIAEEYAKMDNRFKVIHQENQGLGAVRNKGIEAARGEFIAFIDSDDWIEPDYCEQMLRTAGDETDLVICNYAAEFEDTGKTMDSDIAQTYQDQPKEHYIKALFEGKVRGFSWNKLYRRSMIEAHRLSFPLRGELEHVEDQFFSFRAHFFARSVSYVKTPLYHYRIHLSSIVQRYQKKLFESGLALYETNAAFLQENNKLEEYRKELDTFIVLHSSICMLNEWKTSGSRRLFEKLRNVGVICADPVFQESLSKTGTAPFDAKRSCLLLMAKYRMIPFVAMASAVYQRVIEYKMRNRG", "protein production": "failed"}
{"residue-sequence": "MSGDEAVAAPVVPPVAEAAVIPEDMDVSTALELTVRKSRAYGGVVRGLHESAKLIEKRNAQLCVLAEDCNQPDYVKLVKALCADHSIKLLTVPSAKTLGEWAGLCKIDSEGNARKVVGCSCLVIKDFGEETTALNIVKKHLDSN", "protein production": "failed"}
{"residue-sequence": "MLPVSTSVQRSTRQQKITYLYNRNEQSNKKAVTMKTTTTETSIPEEKTTSARIQAYSKSQLAALYLPHIQPASARRTLRSWIAKNTELQAALARSGYTGKAILLTPAQVGLFFRFLGEP", "protein production": "failed"}
{"residue-sequence": "MWTDAGGQVHEAASGDVRIASLVPSITELLFDLGLADQLVARTGFCIHPEPAVRAVAKVGGTKDVKLDRLRALAPTHVVVNIDENRRETVDEIRTFVPHVIVTHPCAPEDNLALYRLLGGIFGRRPQAEALVGQLRGELDAIQAQTWPARRVLYAIWQDPWMTVSRATYISRMLALVNWATWPDDADTSDTPAACVDGDCSRPNAPGERYPTFRWSDALVRELDAVLLSTEPYRFTEDHADALERQIGKPVLLVDGEMLSWYGSRAVAGARYLRSLAQGFLEHHHHHH", "protein production": "not failed"}
{"residue-sequence": "MNMKFTKILVQIAALYVFYMVGTWVQEMLNIPIPGSLIGMFLLLVLLSLKVLPVKWFDLGAETLVAIMPFLLIPPTLGLMNYGAFFMSKGISLFITVVASTFLIIIVAGHTGQYLANRKERESR", "protein production": "failed"}

Data request: Look up protein production for this sequence: `PGSTDFNGALILGLGIDLEKAVGWKNAFFEVEGLQYNGQPVNFAAGSVQGYNSIEAGPPLNRTELYQLWLNQTFLDNRLSFRVGKLIPSMNFGYVGRPFVTQTNPQLFTSTTGLIYTPVFVGPAMLGFIPGYYNSAFGLYGSWKSWGAPGDNPATPNGWYTQAGIYDGRGAQGVQTGLTWPNFSGALFSVAEVGGTWTPYADDPATGWGSVAVGGWRQSGPLTAPGGAFEAQTGGMYAYLVQKLGKFRDSEDQNGIVGFVQGGWNSSSTALMHSSLGFGLTFIAPFGDRPLDSYGFGFSWARLNANPLAGYGFNSYETMIQLYAQYHLVGNLFIQPVLTVLPTPGSGGAGAPSVSGTVQLTFPF`
Data returned: failed

Data request: Entry to check: `MTQKNVITEVFDIVFIFVLAFACVVIPTVLQGAVLVSWEEGGAGIGFVWDPVGFFSFLLVIVAFFAVILYHSVKHYRY`
Data returned: failed

Data request: Note, next up: `NKYNKIANELIKIIGEDNIISITHCATRLRVMVKDREIINDKKVEKVDEVKGVFFTSGQYQIILGTGIVNKVYAEVEKMGLKTLSKKEQDEL`
Data returned: not failed

====

# experiment-description: label from the status in PepcDB records

{"residue-sequence": "MNTLECLAVAVALAMDAFAVAIATGIRLREVSPRQTFRLAFHFGLFQALMPVAGWTLGLTVRGYIEQWDHWLAFGLLLYIGVRMMREAFEETEENDDRCDPTRGLTLIMLAVATSIDALAVGLSLSVLGIDIVTPAIVIGVVCLLFTATGLHLGRMLSRAESLGRRAALAGGVVLIGIGLRILYEHGVFDTAATLARSVLG", "protein production": "failed"}
{"residue-sequence": "MTQVYKAKFGTPNRGWVIIVHGLGEHSGRYSKLVSMLVNEGYAVYTFDWPGHGKSPGKRGHTSVEEAMEIIDFIIEEINDKPFLFGHSLGGLTVIRYAETRPEKIRGVIASSPALAKSPKTPSFMVALAKILGVLLPSLTLSNGIDPNLLSRNPDAVKRYIEDPLVHDRISAKLGRSIFKNMDLAHREAHKIKVPVLLLVGTGDVITPPEGARKLYGEIKVEDKEIVEFEGAYHEIFEDPEWGEEFHKKIVEWIKKH", "protein production": "failed"}
{"residue-sequence": "MVPLESSTLFGVYGGFTDSMMMRETTTNNQDPSGDTCSVSDPAPGSTDYYNISSSPVKDDGTAPKNDVVCSINVDDNKDKSWLRLGIGPEENTDGSYKLQRCCSKNGSGRENSLELSLFSSSSTAVSSSIDHLPTQPLQLPYHHDQLLTMRGPSLVYNHQLMKPQTLLNRGFSFPSSKPWIPQYMAPFRPSSLSDRDVTNNNSLSRSCCVDEGGAGPSSEFRVLDPPRRPHSGLWFLLQASQFQ", "protein production": "failed"}

====

# experiment-description: label from the status in PepcDB records

{"residue-sequence": "MSHPFEGLPTTPTAEELVDKAFSRASRAGGAKDGNEAQQSMLMTASNIASDNMENVVTAWPTIDDLDPFYVELADAVVGEAYPADDDPGIDALKQHLSEISWAADKVVEIRQEYESRVARGDIDTARKLRKQAFARIADVVEEVEDDLAAISTAHNALKDIPDIRPNEPAIVVAGYPNVGKSSFVNRVTRADNEIASYPFTTTQIRVGHFEDQRIRYQLVDTPGLLDRPPEDRNEIESQAVSALEHLADAVLVFIDPSGECGYPLADQLELRNAIEARFDVPVLTIANKSDLSTDVEADHYMSVTEDDNVDGVLQAAIDAVDYELELPFDE", "protein production": "failed"}
{"residue-sequence": "MDLENNNNTPLTGKQAEKCAKKRKCVITLDEKQVESKRLKKEESNVEATSRPPAQSPKKRLHLNGKPMQNKDLNFKYGNYKHYYGKRILNKDFHDIRLDVLGTQPDLFRNKQLLDIGCNSGHLSIQIARKFEVKSLVGLDIDRGLINDAQKTVSHLKRHATPGQGIPHIQFVHGNYVLEDDVLLEIERPQFDVILCLSVTKWIHLNFCDSGLKQAFRRMYLQLRPGGKLILEPQSFDGYKRRKKLSEQIRDNYNAIKFRPDHFTEYLLSPEVGFAEMKLMGIPEHCKVGFKRPIQIFTKS", "protein production": "failed"}

====

# experiment-description: label from the status in PepcDB records
observed-property: protein production

Example results:
{"residue-sequence": "EEKPCGFPHVENGRIAQYYYTFKSFYFPMSIDKKLSFFCLAGYTTESGRQEEQTTCTTEGWSPEPRCFKKCTKPDLSNGYISDVK", "recorded-value": "failed"}
{"residue-sequence": "MHPFRWQRSRQRSSALSFLKKAFYQIPVIGWLVKDAAHGSPEAPYFFLFNAVVVGAALIYTFGYPLVITVAVAGAFAGIAGLVVLTAGDAFDKRAKQPATDVRRAKTATVRPLKKAA", "recorded-value": "failed"}
{"residue-sequence": "MFRIIQPHRWKLAVLMIAANLGLLAFLAFGTIKHVSEWQWLDIVGEGGSALLSLVWLFLVFKSRPAGRVTNYLSVGLSCVFFSWWIDALDEFIRLPAEIEWDHWLESGPMPVGLILLTLGIYHWHREQLAISAQMEKRERGFREHRLYDKLTPLGSADYLKRQLIVSLEQSLCQQQPLSLLALDLDGFSTINNAFGHAEGDEVLSAISHLLVLNLRRQDLLCRLAGDRFVVLMPNTGESQAKLLALELQQAVASLAHKTRQQGERLHLSASVAVVMALNETPDNLLRRLNLSLARARRPLTRTA", "recorded-value": "failed"}
{"residue-sequence": "SARHFGMALAPWDVMGGGRFQSKKAMEERRKNGEGIRSFVGASEQTDAEIKISEALAKIAEEHGTESVTAIAIAYVRSKAKNFFPSVEGGKIEDLKENIKALSIDLTPDNIKYLESIVPFDIGFPNNFIVLNSLTQKYGTNNV", "recorded-value": "not failed"}
{"residue-sequence": "MSVMYKKILYPTDFSETAEIALKHVKAFKTLKAEEVILLHVIDEREIKKRDIFSLLLGVAGLNKSVEEFENELKNKLTEEAKNKMENIKKELEDVGFKVKDIIVVGIPHEEIVKIAEDEGVDIIIMGSHGKTNLKEILLGSVTENVIKKSNKPVLVVKRKNS", "recorded-value": "not failed"}

Data request: Entry `EMRLEKDRFSVNLDVKHFSPEELKVKVLGDVIEVHGKHEERQDEHGFISREFHRKYRIPADVDPLTITSSLSSDGVLTVNGPRKQVSGPERTIPIT` : reported protein production = ?
Data returned: failed

Data request: Try the sequence `DKLYPCQCGKSFTHKSQRDRHMSMHLGLRPYGCGVCGKKFKMKHHLVGHMKIHTGIKPYECNICAKRFMWRDSFHRHVTSCTKSYEAAKAEQNTTEA`
Data returned: not failed

Data request: Same again, this time with `MVDADGIYYLGPEGSFTHEAASLFKGKDLKAESTISLVFKRVYERESSIGIVPIENSLEGPVNETLDNLYNYDNIYVIGEIEKKIELVLAARSDNLSQIKRIYSHPHAFNEAREKLKELGFNEYIPVESTSKAAKIVSQDSEAAAICSNFAAKLYNLKVLITISSHNNYTRFIVLSKEMNSNGNKSMILFTVPHKPGALYKVLQVFYEYNINISMIYSRPLKSIPWQYYFYLEYEGGISNREFIEKLVKSTSVLKIKGSFSKLNNDPGF`
Data returned: failed

Data request: Let us now turn to `MSLAWLISEFASVGDVTVRALRYYDKINLLKPSDYTEGGHRLYTKDDLYVLQQIQSFKHLGFSLGEIQNIILQRDIETEVFLRQMHFQREVLLAEQERIAKVLSHMDEMTKKFQKEERVNVALFSSFLQTFIWEKENKEGHHHHHH`
Data returned: not failed
